Test system: Danio rerio larvae (5 dpf)
test.summary: difference in excitability vs DMSO (percentage points); higher = more excitable than DMSO
condition.context: 10 µM; exposure time 6 h
reported.metric: difference in excitability
// return just the number, without any unit appended

Worked cases, answers included:
C#CCN[C@@H]1CCc2ccccc21 [Rasagiline] : 3.5
CCOc1nc2cccc(C(=O)OC(C)OC(=O)OC3CCCCC3)c2n1Cc1ccc(-c2ccccc2-c2nn[nH]n2)cc1 (stereo not drawn) [Candesartan Cilexetil] : 12.4
COC(=O)c1ccc2c(c1)NC(=O)/C2=C(\Nc1ccc(N(C)C(=O)CN2CCN(C)CC2)cc1)c1ccccc1 : 16.7

Report difference in excitability for NNC(=O)c1ccncc1 [Isoniazid]
6.63

Report difference in excitability for CCCCCCCCCC(=O)N[C@@H](Cc1c[nH]c2ccccc12)C(=O)N[C@H](CC(N)=O)C(=O)N[C@@H](CC(=O)O)C(=O)N[C@@H]1C(=O)NCC(=O)N[C@@H](CCCN)C(=O)N[C@@H](CC(=O)O)C(=O)N[C@H](C)C(=O)N[C@@H](CC(=O)O)C(=O)NCC(=O)N[C@H](CO)C(=O)N[C@@H]([C@H](C)CC(=O)O)C(=O)N[C@@H](CC(=O)c2ccccc2N)C(=O)O[C@@H]1C [Daptomycin]
12

Report difference in excitability for N=C(N)c1ccc(OCCCCCOc2ccc(C(=N)N)cc2)cc1 [Pentamidine]
17
